- RUN PARAMETERS: 20 °C

SMILES STRING | solubility [nM]
Clc1ccc(Cl)c(-c2c(Cl)ccc(Cl)c2Cl)c1 | 64.6
Clc1ccc(-c2cc(Cl)c(Cl)c(Cl)c2Cl)c(Cl)c1 | 3.02
Clc1cc(Cl)c(-c2ccc(Cl)c(Cl)c2Cl)cc1Cl | 4.16

----------
- RUN PARAMETERS: 25 °C

SMILES STRING | READOUT UNIT | solubility
Clc1cccc(-c2c(Cl)c(Cl)cc(Cl)c2Cl)c1 | µM | 0.0174
Clc1ccc(-c2c(Cl)ccc(Cl)c2Cl)c(Cl)c1 | µM | 0.0677
Clc1ccccc1-c1c(Cl)c(Cl)cc(Cl)c1Cl | µM | 0.0398
Clc1ccc(-c2c(Cl)cccc2Cl)c(Cl)c1Cl | µM | 0.166
Clc1cc(Cl)c(Cl)c(-c2ccccc2)c1Cl | µM | 0.0562
Clc1cc(Cl)c(-c2cc(Cl)c(Cl)cc2Cl)c(Cl)c1 | µM | 0.00759
Clc1cc(-c2c(Cl)ccc(Cl)c2Cl)cc(Cl)c1Cl | µM | 0.00537
Clc1cccc(-c2ccc(Cl)c(Cl)c2Cl)c1 | µM | 0.17
Clc1cc(Cl)c(-c2cccc(Cl)c2Cl)c(Cl)c1 | µM | 0.0398
Clc1cc(-c2c(Cl)cccc2Cl)c(Cl)c(Cl)c1Cl | µM | 0.00741
Clc1cc(Cl)c(-c2ccccc2Cl)c(Cl)c1 | µM | 0.224
Clc1ccc(-c2ccccc2)c(Cl)c1Cl | µM | 0.661
Clc1cc(-c2c(Cl)c(Cl)cc(Cl)c2Cl)cc(Cl)c1Cl | µM | 0.000794
Clc1cc(Cl)c(-c2cc(Cl)c(Cl)c(Cl)c2)cc1Cl | µM | 0.00617
Clc1ccc(Cl)c(-c2c(Cl)c(Cl)cc(Cl)c2Cl)c1Cl | µM | 0.0115
Clc1cc(Cl)c(-c2cc(Cl)c(Cl)c(Cl)c2Cl)c(Cl)c1 | µM | 0.00209
Clc1cc(-c2c(Cl)cc(Cl)c(Cl)c2Cl)cc(Cl)c1Cl | µM | 0.000794
Clc1cc(Cl)c(Cl)c(-c2c(Cl)cc(Cl)c(Cl)c2Cl)c1 | µM | 0.00209
Clc1cc(-c2cc(Cl)c(Cl)c(Cl)c2Cl)cc(Cl)c1Cl | µM | 0.0019
Clc1cc(Cl)cc(-c2ccccc2Cl)c1 | µM | 0.501
Clc1ccc(-c2ccccc2)cc1Cl | µM | 0.407
Clc1cc(-c2c(Cl)ccc(Cl)c2Cl)c(Cl)c(Cl)c1Cl | µM | 0.00257
Clc1cc(Cl)c(-c2ccc(Cl)c(Cl)c2)c(Cl)c1 | µM | 0.0123
Clc1cc(Cl)cc(-c2c(Cl)c(Cl)cc(Cl)c2Cl)c1 | µM | 0.00538
Clc1cccc(-c2cc(Cl)c(Cl)cc2Cl)c1 | µM | 0.0741

----------
- RUN PARAMETERS: 25 °C
PARAMETER MEASURED: solubility (nM)

SMILES STRING | PARAMETER MEASURED | RECORDED NUMBER
Clc1ccc(-c2c(Cl)c(Cl)c(Cl)c(Cl)c2Cl)c(Cl)c1 | solubility | 1.07
Clc1cccc(-c2c(Cl)cccc2Cl)c1Cl | solubility | 501
Clc1cccc(-c2cc(Cl)c(Cl)c(Cl)c2Cl)c1Cl | solubility | 3.8
Clc1cc(Cl)c(-c2cc(Cl)ccc2Cl)c(Cl)c1 | solubility | 33.9
Clc1cc(Cl)c(-c2c(Cl)ccc(Cl)c2Cl)c(Cl)c1Cl | solubility | 7.08
Clc1cc(Cl)c(Cl)c(-c2cc(Cl)c(Cl)cc2Cl)c1 | solubility | 2.63
Clc1cc(Cl)cc(-c2c(Cl)ccc(Cl)c2Cl)c1 | solubility | 11.2
Clc1ccc(-c2c(Cl)c(Cl)cc(Cl)c2Cl)c(Cl)c1Cl | solubility | 3.8
Clc1cc(Cl)c(-c2c(Cl)c(Cl)c(Cl)c(Cl)c2Cl)c(Cl)c1Cl | solubility | 0.0788
Clc1ccc(-c2c(Cl)cc(Cl)c(Cl)c2Cl)cc1 | solubility | 11.2
Clc1cc(Cl)cc(-c2c(Cl)c(Cl)c(Cl)c(Cl)c2Cl)c1 | solubility | 0.794
Clc1ccc(-c2cc(Cl)c(Cl)cc2Cl)c(Cl)c1 | solubility | 11.2
Clc1ccc(-c2c(Cl)cc(Cl)cc2Cl)c(Cl)c1 | solubility | 21.9
Clc1ccc(-c2cc(Cl)cc(Cl)c2Cl)c(Cl)c1 | solubility | 15.1
Clc1cc(Cl)c(-c2c(Cl)c(Cl)cc(Cl)c2Cl)c(Cl)c1Cl | solubility | 0.631
Clc1cc(Cl)c(-c2c(Cl)cc(Cl)c(Cl)c2Cl)c(Cl)c1Cl | solubility | 0.794
Clc1ccc(-c2c(Cl)cccc2Cl)cc1Cl | solubility | 95.5
Clc1ccc(-c2ccccc2Cl)c(Cl)c1 | solubility | 323
Clc1cccc(-c2c(Cl)cc(Cl)c(Cl)c2Cl)c1Cl | solubility | 3.31
Clc1cc(Cl)c(-c2c(Cl)c(Cl)cc(Cl)c2Cl)c(Cl)c1 | solubility | 3.24
Clc1ccc(-c2c(Cl)cccc2Cl)c(Cl)c1 | solubility | 224
Clc1cc(-c2c(Cl)cc(Cl)c(Cl)c2Cl)c(Cl)c(Cl)c1Cl | solubility | 0.38
Clc1cc(Cl)c(-c2c(Cl)c(Cl)c(Cl)c(Cl)c2Cl)cc1Cl | solubility | 0.316
Clc1cc(-c2c(Cl)c(Cl)cc(Cl)c2Cl)c(Cl)c(Cl)c1Cl | solubility | 0.513
